B1: ZBED2 (parent)
chain: RAGHHPNQYATCRLCGRQVSRGPG

# Variants of: B1
# MEASUREMENT DESCRIPTION: protein stability index of a GFP-peptide fusion (GPS, HEK-293T) (PSI 1-6); higher = more stable;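 also: lentivirally expressed fusions sorted by FACS into six bins by GFP to DsRed ratio, PSI derived from sequencing read proportions per bin multiplied by bin number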
# CONDITION CONTEXT: c terminus: a fixed tail appended
OBSERVED PROPERTY: protein stability index
# answer = number (no unit)

>  <CONSTRUCT SEQUENCE>
RAQHHPNQYATCRLCGRQVSRGPG

>  <protein stability index>
1.75

$$$$
>  <CONSTRUCT SEQUENCE>
RAGHHPNDYATCRLCGRQVSRGPG

>  <protein stability index>
3.31

$$$$
>  <CONSTRUCT SEQUENCE>
RAGHHPNQYATCRLCGRYVSRGPG

>  <protein stability index>
2.51

$$$$
>  <CONSTRUCT SEQUENCE>
RAGHHPNQYATCRLCGDQVSRGPG

>  <protein stability index>
2.96

$$$$
>  <CONSTRUCT SEQUENCE>
RAIHHPNQYATCRLCGRQVSRGPG

>  <protein stability index>
1.55

$$$$

Any idea what its protein stability index is? The variant is "RAGHHPNQYATCRLCGRQHSRGPG" 3.82

Any idea what its protein stability index is? The variant is "RAGHHPNQYATCRLCGRQVPRGPG" 2.53

Any idea what its protein stability index is? The variant is "RAGHHPNQYATCRLCGRAVSRGPG" 2.44

Any idea what its protein stability index is? The variant is "RAGHHPNQYATCRLCGRQVFRGPG" 1.79

Any idea what its protein stability index is? The variant is "RAGHHPNQYATCRLCGRQVSRHPG" 2.12

Any idea what its protein stability index is? The variant is "RAGHHPNQYATCRLIGRQVSRGPG" 1.95

Any idea what its protein stability index is? The variant is "RAGHHPNQYATCRLCGRQVKRGPG" 1.88

Any idea what its protein stability index is? The variant is "RAGHHPNFYATCRLCGRQVSRGPG" 2.11

Any idea what its protein stability index is? The variant is "CAGHHPNQYATCRLCGRQVSRGPG" 3.55

Any idea what its protein stability index is? The variant is "RAGHHPNQYATGRLCGRQVSRGPG" 3.16

Any idea what its protein stability index is? The variant is "RAGHHPNQYATCRLCGRQVSLGPG" 2.03

Any idea what its protein stability index is? The variant is "RAGHHPNQYATCRLCGRQVSRGPV" 1.61

Any idea what its protein stability index is? The variant is "RAGHHPNQYATDRLCGRQVSRGPG" 2.88

Any idea what its protein stability index is? The variant is "RAGHLPNQYATCRLCGRQVSRGPG" 1.86

Any idea what its protein stability index is? The variant is "RAGHHPNQYATCRLCGRQVSREPG" 2.08
